The reported measurements were obtained from ChEMBL document CHEMBL4393662.

# tgt: CYP2C19 (Homo sapiens)
# Sequence (P33261 whole entry): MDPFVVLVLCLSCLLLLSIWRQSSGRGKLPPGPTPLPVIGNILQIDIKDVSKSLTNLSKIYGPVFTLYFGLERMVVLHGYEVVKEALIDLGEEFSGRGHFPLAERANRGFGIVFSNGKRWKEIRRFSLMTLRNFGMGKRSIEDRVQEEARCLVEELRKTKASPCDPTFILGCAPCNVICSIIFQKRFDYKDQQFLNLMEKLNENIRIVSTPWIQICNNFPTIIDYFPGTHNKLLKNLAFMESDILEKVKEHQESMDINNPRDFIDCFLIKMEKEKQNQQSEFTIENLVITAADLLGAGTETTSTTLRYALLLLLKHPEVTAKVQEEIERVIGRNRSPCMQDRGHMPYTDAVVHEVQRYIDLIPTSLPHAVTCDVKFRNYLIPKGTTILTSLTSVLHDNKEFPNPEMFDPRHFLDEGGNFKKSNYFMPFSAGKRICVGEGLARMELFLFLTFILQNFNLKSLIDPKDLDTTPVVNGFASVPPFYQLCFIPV
# measurement notes: Inhibition of CYP2C19 (unknown origin) at 10 uM relative to control
# Type: ADME
parameter: inhibition at 10 µM (%)
Output spec: scalar in %, unitless text.

Q: inhibition at 10 µM for Cc1ccc(NCc2ccnn2-c2nnc(N3CCC(C(=O)N[C@H]4CCCC[C@H]4C)CC3)s2)nc1 ?
A: 7.1

###

# measurement notes: Intrinsic clearance in human liver microsomes at 1 uM
# Assay type: ADME, Microsome
# assay setup: read-out: CLH
parameter: CLint scaled at 1 µM (mL/min/kg)
Output spec: scalar in mL/min/kg, unitless text.

Q: CLint scaled at 1 µM for Cc1ccc(NCc2ccnn2-c2nnc(N3CCC(C(=O)N[C@H]4CCCC[C@H]4C)CC3)s2)nc1 ?
A: 2700

###

# tgt: CYP2C9 (Homo sapiens, UniProt P11712)
# Sequence (P11712 whole entry): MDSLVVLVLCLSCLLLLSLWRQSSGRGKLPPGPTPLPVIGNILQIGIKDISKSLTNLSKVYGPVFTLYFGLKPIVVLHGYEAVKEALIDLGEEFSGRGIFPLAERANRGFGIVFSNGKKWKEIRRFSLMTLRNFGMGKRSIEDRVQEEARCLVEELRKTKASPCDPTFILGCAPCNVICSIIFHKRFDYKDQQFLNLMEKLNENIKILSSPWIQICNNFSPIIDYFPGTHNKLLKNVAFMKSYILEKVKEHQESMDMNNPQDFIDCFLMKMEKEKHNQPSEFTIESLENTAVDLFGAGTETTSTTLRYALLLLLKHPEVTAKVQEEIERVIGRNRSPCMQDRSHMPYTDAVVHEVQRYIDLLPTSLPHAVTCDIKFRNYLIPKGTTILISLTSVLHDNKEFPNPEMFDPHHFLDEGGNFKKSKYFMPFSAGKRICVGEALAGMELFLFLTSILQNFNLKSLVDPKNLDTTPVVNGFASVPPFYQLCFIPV
# measurement notes: Inhibition of CYP2C9 (unknown origin) at 10 uM relative to control
# Format: ADME
parameter: inhibition at 10 µM (%)
Output spec: scalar in %, unitless text.

Q: inhibition at 10 µM for Cc1ccc(NCc2ccnn2-c2nnc(N3CCC(C(=O)N[C@H]4CCCC[C@H]4C)CC3)s2)nc1 ?
A: 26

###

# tgt: UniProtKB P08684
# Sequence (P08684 whole entry): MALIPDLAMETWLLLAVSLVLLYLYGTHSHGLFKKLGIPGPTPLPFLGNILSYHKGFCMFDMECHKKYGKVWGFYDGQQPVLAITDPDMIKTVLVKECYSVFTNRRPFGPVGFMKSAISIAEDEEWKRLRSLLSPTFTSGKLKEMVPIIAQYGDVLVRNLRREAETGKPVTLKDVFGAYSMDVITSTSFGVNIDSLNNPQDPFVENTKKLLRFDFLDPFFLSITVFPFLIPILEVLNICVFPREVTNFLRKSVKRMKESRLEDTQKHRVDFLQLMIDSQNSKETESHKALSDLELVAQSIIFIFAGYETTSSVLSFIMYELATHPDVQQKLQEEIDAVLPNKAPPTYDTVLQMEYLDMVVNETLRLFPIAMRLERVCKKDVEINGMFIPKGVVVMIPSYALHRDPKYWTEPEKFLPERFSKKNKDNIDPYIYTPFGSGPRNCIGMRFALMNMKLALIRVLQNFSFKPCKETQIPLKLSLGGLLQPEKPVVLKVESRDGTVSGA
# measurement notes: Inhibition of CYP3A4 (unknown origin) at 10 uM relative to control
# Type: ADME
parameter: inhibition at 10 µM (%)
Output spec: scalar in %, unitless text.

Q: inhibition at 10 µM for Cc1ccc(NCc2ccnn2-c2nnc(N3CCC(C(=O)N[C@H]4CCCC[C@H]4C)CC3)s2)nc1 ?
A: 72

###

Field: pIC50. Provide a value for each of the molecules that follow.
# tgt: Protein smoothened (Mus musculus, UniProt P56726)
# Sequence (P56726 whole entry): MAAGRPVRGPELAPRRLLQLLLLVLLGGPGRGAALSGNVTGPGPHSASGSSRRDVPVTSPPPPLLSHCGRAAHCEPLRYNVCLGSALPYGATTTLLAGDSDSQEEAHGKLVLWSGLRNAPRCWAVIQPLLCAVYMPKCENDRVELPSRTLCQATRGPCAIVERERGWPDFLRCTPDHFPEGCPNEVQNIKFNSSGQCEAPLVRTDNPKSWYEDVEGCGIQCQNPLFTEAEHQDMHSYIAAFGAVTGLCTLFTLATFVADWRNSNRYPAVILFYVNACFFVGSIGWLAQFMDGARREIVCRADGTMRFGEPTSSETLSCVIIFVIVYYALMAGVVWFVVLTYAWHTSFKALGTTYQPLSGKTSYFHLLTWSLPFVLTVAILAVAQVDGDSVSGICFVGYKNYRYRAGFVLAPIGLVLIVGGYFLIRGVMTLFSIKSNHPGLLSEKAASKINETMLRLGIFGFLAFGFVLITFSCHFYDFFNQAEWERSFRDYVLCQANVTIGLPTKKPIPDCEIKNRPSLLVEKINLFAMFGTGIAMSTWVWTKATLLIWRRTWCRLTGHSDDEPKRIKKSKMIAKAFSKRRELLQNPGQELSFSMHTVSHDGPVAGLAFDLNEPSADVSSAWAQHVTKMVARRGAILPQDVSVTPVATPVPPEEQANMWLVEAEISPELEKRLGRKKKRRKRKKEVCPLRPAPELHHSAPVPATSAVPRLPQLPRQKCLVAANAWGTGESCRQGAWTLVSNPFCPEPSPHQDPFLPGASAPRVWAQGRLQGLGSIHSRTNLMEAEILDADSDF
# measurement notes: Antagonist activity at Smo receptor in mouse NIH/3T3 cells harboring GRE-Luc assessed as inhibition of SAG-induced Hh signaling pathway preincubated with cells followed by SAG addition measured after 48 hrs by luciferase reporter gene assay
Interpret pIC50 as the negative base-10 log of the concentration measured in mol/L.

Q: pIC50 for Cc1ccc(NCc2ccnn2-c2nnc(N3CCC(C(=O)NC4CCCCC4C)CC3)s2)cc1 (configuration not stated) ?
A: 7.34

Q: Field entry: Cc1ccc(NCc2ccnn2-c2nnc(N3CCC(C(=O)Nc4ccncc4C)CC3)s2)nc1
A: 6.66

Q: Field entry: Cc1ccc(NCc2ccnn2-c2nnc(N3CCC(C(=O)NC4CCCCC4C)CC3)s2)nc1 (racemic)
A: 8.15

Q: Field entry: CC(O)c1ccnn1-c1nnc(N2CCC(C(=O)NC3CCCCC3C)CC2)s1 (configuration not stated)
A: 5.43

Q: Field entry: Cc1ccc(NCc2ccnn2-c2nnc(N3CCC(C(=O)N[C@H]4CCCC[C@H]4C)CC3)s2)nc1
A: 8.15

Q: Field entry: Cc1ccc(CCc2ccnn2-c2nnc(N3CCC(C(=O)NC4CCCCC4C)CC3)s2)nc1 (configuration not stated)
A: 7.24

Q: Field entry: Cc1ccc(NCc2ccnn2-c2nnc(N3CCC(C(=O)Nc4cnccc4C)CC3)s2)nc1
A: 6.26

Q: Field entry: CC1CCCCC1NC(=O)C1CCN(c2nnc(-n3nccc3CNc3cccnc3)s2)CC1 (configuration not stated)
A: 7.16

Q: Field entry: Cc1ccc(NCc2ccnn2-c2nnc(N3CCC(C(=O)Nc4ccccc4C)CC3)s2)nc1
A: 6.85

Q: Field entry: Cc1ccc(OCc2ccnn2-c2nnc(N3CCC(C(=O)NC4CCCCC4C)CC3)s2)nc1 (configuration not stated)
A: 7.38

Q: Field entry: Cc1ccc(NCc2ccccc2-c2nnc(N3CCC(C(=O)NC4CCCCC4C)CC3)s2)nc1 (configuration not stated)
A: 6.54

Q: Field entry: Cc1ccc(NCc2ccnn2-c2nnc(N3CCC(C(=O)NC4CCCCC4C)CC3)s2)nn1 (configuration not stated)
A: 7.09

Q: Field entry: Cc1ccc(NCc2ccnn2-c2nnc(N3CCC(C(=O)NC4CCCCC4C)CC3)s2)cn1 (configuration not stated)
A: 7.29

###

# measurement notes: Half life in human liver microsomes at 1 uM
# Type: ADME, Microsome
parameter: half-life at 1 µM
Respond with the figure and its unit, in that order.

Q: half-life at 1 µM for Cc1ccc(NCc2ccnn2-c2nnc(N3CCC(C(=O)N[C@H]4CCCC[C@H]4C)CC3)s2)nc1 ?
A: 0.64 min
